# measurement.target: T1, CRBN, Q96SW2;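 further: pooled lentiviral library of zinc finger degron-EGFP fusions in mCherry-positive Jurkat cells, FACS-sorted after compound exposure, with degron abundance counted by next-generation sequencing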
# T1 chain: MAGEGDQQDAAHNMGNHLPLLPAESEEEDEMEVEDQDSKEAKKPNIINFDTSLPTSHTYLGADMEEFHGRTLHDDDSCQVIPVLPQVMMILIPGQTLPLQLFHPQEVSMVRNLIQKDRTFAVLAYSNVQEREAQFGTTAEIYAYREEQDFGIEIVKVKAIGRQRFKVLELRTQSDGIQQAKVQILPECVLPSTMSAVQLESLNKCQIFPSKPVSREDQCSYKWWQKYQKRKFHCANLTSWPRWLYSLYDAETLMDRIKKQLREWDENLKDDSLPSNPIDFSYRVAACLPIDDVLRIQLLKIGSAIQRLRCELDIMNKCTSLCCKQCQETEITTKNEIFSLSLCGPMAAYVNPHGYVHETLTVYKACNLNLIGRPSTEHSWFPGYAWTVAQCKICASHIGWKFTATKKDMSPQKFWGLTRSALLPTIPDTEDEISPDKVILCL
# experiment.summary: log2 fold change of degron read counts, EGFP-low vs EGFP+ sorted cells (limma voom), compound-induced degradation; higher = more compound-induced degradation of the degron-EGFP fusion; degrons are variants of IKZF1/3 zinc finger 2; compound dose not given here
# test.settings: Jurkat; 18 h; compound: compound 33 (diphenyl IMiD analogue)
Whole data set: some 8,300 sequences, median “log2 fold change of degron read counts, EGFP-low vs EGFP+ sorted cells (limma voom), compound-induced degradation” near -1.1, cut for the highest 2% near 3.2. The sample as a whole holds a higher share of the highest values than the screen did.
reported.endpoint: log2 fold change of degron read counts
Just the number, please, no unit attached.

// known answers, use as guide
Give the measured log2 fold change of degron read counts for FNCPICGAEFTQKGNLLRHIKL [46F_47N_49P_50I_52G_53A_54E_55F_67L_, Q9UKT9]
0.475

Give the measured log2 fold change of degron read counts for LRCEICGFFCTQKGNLLRHIKL [46L_47R_49E_50I_52G_53F_54F_55C_67L_, Q9UKT9]
0.954

Give the measured log2 fold change of degron read counts for FMCEICGHVFTQKGNLLRHIKL [46F_47M_49E_50I_52G_53H_54V_55F_67L_, Q9UKT9]
-2.18

Give the measured log2 fold change of degron read counts for LCCEICGFMCTQKGNLLRHIKL [46L_47C_49E_50I_52G_53F_54M_55C_67L_, Q9UKT9]
1.45

Give the measured log2 fold change of degron read counts for FSCEICGRYFTQKGNLLRHIKL [46F_47S_49E_50I_52G_53R_54Y_55F_67L_, Q9UKT9]
-1.28

Next:
Give the measured log2 fold change of degron read counts for FHCPQCGACFTQKGNLLRHIKL [46F_47H_49P_50Q_52G_53A_54C_55F_67L_, Q9UKT9]
0.174

Give the measured log2 fold change of degron read counts for FLCNVCGAAFTQKGNLLRHIKL [46F_47L_49N_50V_52G_53A_54A_55F_67L_, Q9UKT9]
-0.522

Give the measured log2 fold change of degron read counts for FICPICGHQFTQKGNLLRHIKL [46F_47I_49P_50I_52G_53H_54Q_55F_67L_, Q9UKT9]
-1.5

Give the measured log2 fold change of degron read counts for FRCNICGASFTQKGNLLRHIKL [46F_47R_49N_50I_52G_53A_54S_55F_67L_, Q9UKT9]
0.894
